The entries below come with measured IC50 values attached.
# SYSTEM_UNDER_TEST: full-length human PKCι (Homo sapiens)
# Construct: Recombinant, full-length human PKCι expressed in Sf21 insect cells is also commercially available
# Sequence (P41743 whole entry): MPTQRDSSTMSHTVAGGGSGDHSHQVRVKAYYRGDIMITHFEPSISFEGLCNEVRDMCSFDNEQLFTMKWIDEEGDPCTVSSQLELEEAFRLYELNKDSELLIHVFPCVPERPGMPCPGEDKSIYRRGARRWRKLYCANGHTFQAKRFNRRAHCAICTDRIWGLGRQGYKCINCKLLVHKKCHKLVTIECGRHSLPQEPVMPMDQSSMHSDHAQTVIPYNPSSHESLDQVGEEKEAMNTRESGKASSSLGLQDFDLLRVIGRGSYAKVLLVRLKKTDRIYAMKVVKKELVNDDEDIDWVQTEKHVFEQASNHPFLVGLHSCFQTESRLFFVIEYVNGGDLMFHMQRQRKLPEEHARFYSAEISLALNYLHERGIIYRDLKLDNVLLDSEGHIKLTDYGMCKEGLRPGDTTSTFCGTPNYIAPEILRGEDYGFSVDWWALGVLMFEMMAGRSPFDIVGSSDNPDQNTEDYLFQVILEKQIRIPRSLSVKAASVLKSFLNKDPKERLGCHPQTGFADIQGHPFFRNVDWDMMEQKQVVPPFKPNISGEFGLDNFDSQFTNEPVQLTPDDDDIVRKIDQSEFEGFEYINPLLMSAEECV
# TEST_DETAILS: PKCι IC50 IMAP assay, full-length PKCι at 150 μM ATP
# CONDITION: read-out: IC50 in IMAP assay against full length PKCi at 150 μM ATP

For orientation, consider the following solved cases.
Consider the molecule FC(F)(F)CC1CN(c2nc(-c3ccnc(Nc4ccccc4)c3)nc3cncc(C4CC4)c23)CCN1 (stereo not shown) and give its measured IC50.
1000 to 10000 nM

Entry `CC(C)c1cccc(Nc2cc(-c3nc(N4CCNCC4)c4c(C5CC5)cncc4n3)ccn2)c1` has what IC50?
< 100 nM

Look at this molecule and give its reported IC50. `c1cnnc(Nc2cc(-c3nc(N4CCNCC4)c4c(C5CC5)cncc4n3)ccn2)c1`
< 100 nM

Using the record for `[2H]C([2H])([2H])c1cc2c(-c3nc(N4CCNCC4)c4c(C5CC5)cncc4n3)ccnc2[nH]1` , report its IC50.
< 100 nM

More entries:
Sample `FC(F)(F)c1ccc(Nc2cc(-c3nc(N4CCNCC4)c4c(C5CCC5)cncc4n3)ccn2)nc1` — what was its IC50?
< 100 nM

Param item = `N#CC[C@H]1CN(c2nc(-c3ccnc(Nc4ccccc4)c3)nc3cncc(C4CC4)c23)CCN1` ; retrieve measured IC50.
< 100 nM
